Ref: patent US9233971B2

Known Targeted mRNA remain in liver of a selection of molecules
test system: SSB mRNA in liver; assay: In vivo gene knockdown, liposomal siRNA formulation (Example 3), SSB siRNA; set-up: species or system CD1 mice; conditions: liposomal formulation, SSB siRNA, dose 3.2 mg/kg intravenously, CD1 mice, liver harvested three days later, real-time RT-PCR, GAPDH reference
Simply state the number, no unit and no words.

Would you please look over these solved cases?
[
  {
    "molecule": "CCCCCCCCCCOCC(O)CN(CCCN(CCCN(CC(O)COCCCCCCCCCC)CC(O)COCCCCCCCCCC)CCCN(CC(O)COCCCCCCCCCC)CC(O)COCCCCCCCCCC)CC(O)COCCCCCCCCCC (centres unmarked)",
    "measured_target": "SSB mRNA in liver",
    "Targeted mRNA remain in liver": 0.13
  },
  {
    "molecule": "CCCCC(CC)COCC(O)CN(CCN(CCN(CC(O)COCC(CC)CCCC)CC(O)COCC(CC)CCCC)CCN(CC(O)COCC(CC)CCCC)CC(O)COCC(CC)CCCC)CC(O)COCC(CC)CCCC (centres unmarked)",
    "measured_target": "SSB mRNA in liver",
    "Targeted mRNA remain in liver": 0.43
  },
  {
    "molecule": "CCCCCCCCCCOCC(O)CN(CCCN(CCCN(CC(O)COCCCCCCCCCC)CC(O)COCCCCCCCCCC)CC(O)COCCCCCCCCCC)CCCN(CC(O)COCCCCCCCCCC)CC(O)COCCCCCCCCCC (centres unmarked)",
    "measured_target": "SSB mRNA in liver",
    "Targeted mRNA remain in liver": 0.1
  },
  {
    "molecule": "CCCCCCCCCCCCC(O)CN(CCN(C)CCN(CC(O)CCCCCCCCCCCC)CC(O)CCCCCCCCCCCC)CC(O)CCCCCCCCCCCC (centres unmarked)",
    "measured_target": "SSB mRNA in liver",
    "Targeted mRNA remain in liver": 1.1
  }
]

**Query** State its Targeted mRNA remain in liver: CCCCCCCCCCCCCCOCC(O)CN(CCCN(C)CCCN(CC(O)COCCCCCCCCCCCCCC)CC(O)COCCCCCCCCCCCCCC)CC(O)COCCCCCCCCCCCCCC (centres unmarked)
**Result** 0.13

* * *

Measured Targeted mRNA remain in liver of individual entries
tested on: SSB mRNA in liver; assay: In vivo gene knockdown, liposomal siRNA formulation (Example 3), SSB siRNA; set-up: species or system CD1 mice; conditions: liposomal formulation, SSB siRNA, dose 3.2 mg/kg intravenously, CD1 mice, liver harvested three days later, real-time RT-PCR, GAPDH reference
Number only, please.

Previously resolved entries follow.
[
  {
    "compound": "CCCCCCCCCCCCC(O)CN1CCN(CC(O)CCCCCCCCCCCC)CCN(CC(O)CCCCCCCCCCCC)CCN(CC(O)CCCCCCCCCCCC)CC1 (centres unmarked)",
    "Targeted mRNA remain in liver": 0.66
  },
  {
    "compound": "CCCCCCCCCCCCCCOCC(O)CN(CCCN(CCCN(CC(O)COCCCCCCCCCCCCCC)CC(O)COCCCCCCCCCCCCCC)CCCN(CC(O)COCCCCCCCCCCCCCC)CC(O)COCCCCCCCCCCCCCC)CC(O)COCCCCCCCCCCCCCC (centres unmarked)",
    "Targeted mRNA remain in liver": 0.1
  },
  {
    "compound": "CCCCCCCCCCC(O)CN(CCN(CCN(CC(O)CCCCCCCCCC)CC(O)CCCCCCCCCC)CCN(CC(O)CCCCCCCCCC)CC(O)CCCCCCCCCC)CC(O)CCCCCCCCCC (centres unmarked)",
    "Targeted mRNA remain in liver": 0.41
  },
  {
    "compound": "CCCCCCCCCCCCCCCCC(O)CN1CCN(Cc2ccccc2)CCN(CC(O)CCCCCCCCCCCCCCCC)CCN(CC(O)CCCCCCCCCCCCCCCC)CC1 (centres unmarked)",
    "Targeted mRNA remain in liver": 0.6
  }
]

**Query** Dear colleague, please send me the reported Targeted mRNA remain in liver for CCCCCCCCCCCCCCC(O)CN(CCCN(CC(O)CCCCCCCCCCCCCC)CC(O)CCCCCCCCCCCCCC)CCCN(CC(O)CCCCCCCCCCCCCC)CC(O)CCCCCCCCCCCCCC (centres unmarked) when you can.
**Result** 0.52

* * *

test system: SSB mRNA in liver; test: In vivo gene knockdown, liposomal siRNA formulation (Example 3), SSB siRNA; design: species or system CD1 mice; conditions: liposomal formulation, SSB siRNA, dose 3.2 mg/kg intravenously, CD1 mice, liver harvested three days later, real-time RT-PCR, GAPDH reference
As shown below, each of these molecules has a reported Targeted mRNA remain in liver value.
Enter the number alone.

Use these answered entries as a reference point.
[
  {
    "molecule": "CCCCCCCCCCCCCCCCC(O)CN(CCN(C)CCN(CC(O)CCCCCCCCCCCCCCCC)CC(O)CCCCCCCCCCCCCCCC)CC(O)CCCCCCCCCCCCCCCC (stereo not drawn)",
    "Targeted mRNA remain in liver": 0.45
  },
  {
    "molecule": "CCCCCCCCCCC(O)CN(CCCN(CCCN(CC(O)CCCCCCCCCC)CC(O)CCCCCCCCCC)CCCN(CC(O)CCCCCCCCCC)CC(O)CCCCCCCCCC)CC(O)CCCCCCCCCC (stereo not drawn)",
    "Targeted mRNA remain in liver": 0.12
  },
  {
    "molecule": "CCCCCCCCCCC(O)CN(CCCN(CCCN(CC(O)CCCCCCCCCC)CC(O)CCCCCCCCCC)CC(O)CCCCCCCCCC)CCCN(CC(O)CCCCCCCCCC)CC(O)CCCCCCCCCC (stereo not drawn)",
    "Targeted mRNA remain in liver": 0.13
  }
]

**Query** Answer with reported Targeted mRNA remain in liver of CCCCC(CC)COCC(O)CN1CCN(Cc2ccccc2)CCN(CC(O)COCC(CC)CCCC)CCN(CC(O)COCC(CC)CCCC)CC1 (stereo not drawn)
**Result** 0.64

**Query** Please report the measured Targeted mRNA remain in liver for CCCCCCCCCCCCCCC(O)CN(CCCN(CCCN(CC(O)CCCCCCCCCCCCCC)CC(O)CCCCCCCCCCCCCC)CC(O)CCCCCCCCCCCCCC)CCCN(CC(O)CCCCCCCCCCCCCC)CC(O)CCCCCCCCCCCCCC (stereo not drawn)
**Result** 0.1

**Query** Return reported Targeted mRNA remain in liver. Input molecule: CCCCCCCCCCCCCCOCC(O)CN1CCN(Cc2ccccc2)CCN(CC(O)COCCCCCCCCCCCCCC)CCN(Cc2ccccc2)CC1 (stereo not drawn)
**Result** 0.98
